- Method Notes: qHTS Assay to Find Inhibitors of Chronic Active B-Cell Receptor Signaling: Hit Validation in Renilla Reporter Assay; note: nearly all actives have a fitted effect of over 70% in size; note: potency is the fitted concentration of half-maximal effect
- Details: TMD8 IkB-Renilla luciferase reporter, NF-kB signaling; series mostly up to 57.5 µM
Hit rate of the full screen: of about 1,200 compounds, about 55 (5%) were called active. Roughly 15% stayed inconclusive and do not appear here. Only a selection was taken, and actives are over-represented in it overall.
Measurement Kind: Potency

>>> print(df.to_string())
                                    molecule  experimental_value
 0  COc1ccc(C)cc1NS(=O)(=O)c1ccc(-c2cnc(C3CC3)o2)cc1            inactive
 1  CCOC(=O)C1CCN(C(=O)CSc2cc(=O)n(CC)c3ccccc23)CC1            inactive
 2             CCOc1nc(OCC)nc(N2CCC(C)CC2)n1            inactive
 3  COc1cc(OC)c2c(-c3cccc(-c4ccc(NC(C)=O)cc4)c3)cc(=O)oc2c1            inactive
 4  CCN(c1ccccc1)S(=O)(=O)c1ccc(C(=O)NNC(=O)c2ccccc2F)cc1            inactive
 5  CCc1nc2ccccc2c(C(=O)OCc2nc3ccccc3c(=O)[nH]2)c1C            inactive
 6  COc1cccc(N2CC(O)=C(c3nc4ccccc4s3)C2=N)c1            inactive
 7  CCC(=NCCc1c(C)[nH]c2ccc(C)cc12)C1=C(O)CC(c2ccccc2)CC1=O (stereo not drawn)            inactive
 8   O=C(N/N=C/c1ccc(Cl)cc1)c1n[nH]c2c1CCCC2            inactive
 9             Cc1cc(Cl)n2c(nc3ccccc32)c1C#N     1.9 µM (active)
10  COc1cc(OC)cc(C(=O)NCC(=O)Nc2ccc(-c3ccccc3)cc2)c1            inactive
11  Cc1cccc(-n2c3nc(=O)[nH]c(=O)c-3cc3cc([N+](=O)[O-])ccc32)c1    26.9 µM (active)
12       O=C(Oc1c(Cl)cc(Cl)c2cccnc12)c1ccco1      12 µM (active)
13           CCc1c(C)c(C#N)c2nc3ccccc3n2c1Cl   0.953 µM (active)
14     S=c1nc2ccccc2c2nc(-c3ccccc3Cl)[nH]n12            inactive
15  O=C(Oc1ccc(Cl)c2cccnc12)C12CC3CC(CC(C3)C1)C2            inactive
16  Cc1ccc(S(=O)(=O)n2cc(-c3ccccc3)c3ccccc32)cc1            inactive
17         O=C(/C=C/c1ccc(O)cc1)c1ccc(O)cc1O    10.7 µM (active)
